Target: T1, cIL2Rg-Fc (lot#P210115SV5) (cynomolgus, UniProt A0A2K5VGJ6 23-262)
T1 construct: Named only by lot number; also called cynomolgus IL2Rg-Fc; not shown: Fc of the fusion protein
T1 sequence: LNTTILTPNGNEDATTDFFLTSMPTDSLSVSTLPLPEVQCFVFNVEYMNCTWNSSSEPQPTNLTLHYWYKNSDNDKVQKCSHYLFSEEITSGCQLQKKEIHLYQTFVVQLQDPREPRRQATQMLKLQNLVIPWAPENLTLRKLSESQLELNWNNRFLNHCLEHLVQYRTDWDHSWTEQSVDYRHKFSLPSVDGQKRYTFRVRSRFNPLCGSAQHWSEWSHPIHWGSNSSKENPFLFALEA
Test: SPR (Biacore T200); ratio experimental/calculated Rmax
Measured Surface Activity, listed per entry.
Property Label: Surface Activity (%)

>>> readout_number("DR474(DR241-DR234) (bispecific antibody, Anti-hIL10Ra/hIL2Rg dual VHH with ASH6 handle; also called H9) QVQLQESGGGSVQAGGSLRLSCAASGYSNCSYDMTWYRQAPGKEREFVSAIHSDGSTRYADSVKGRFFISQDNAKNTVYLQMNSLKPEDTAMYYCKTDPLHCRAHGGSWYSVRANYWGQGTQVTVSSGGGSQVQLQESGGGSVQAGGSLRLSCVASGYTFSSYCMGWFRQAPGKEREGVAALGGGSTYYADSVKGRFTISQDNAKNTLYLQMNSLKPEDTAMYYCAAAWVACLEFGGSWYDLARYKHWGQGTQVTVSSASHHHHHH")
2
>>> readout_number("DR468(DR240-DR234) (bispecific antibody, Anti-hIL10Ra/hIL2Rg dual VHH with ASH6 handle; also called G8) QVQLQESGGGSVQAGGSLRLSCGASGYTYSSYCMGWFRQVPGKEREGVAVIDSDGSTSYADSVKGRFTISKDNGKNTLYLQMNSLKPEDTAMYYCAADLGHYRPPCGVLYLGMDYWGKGTQVTVSSGGGSQVQLQESGGGSVQAGGSLRLSCVASGYTFSSYCMGWFRQAPGKEREGVAALGGGSTYYADSVKGRFTISQDNAKNTLYLQMNSLKPEDTAMYYCAAAWVACLEFGGSWYDLARYKHWGQGTQVTVSSASHHHHHH")
1
>>> readout_number("DR466(DR240-DR232) (bispecific antibody, Anti-hIL10Ra/hIL2Rg dual VHH with ASH6 handle; also called H7) QVQLQESGGGSVQAGGSLRLSCGASGYTYSSYCMGWFRQVPGKEREGVAVIDSDGSTSYADSVKGRFTISKDNGKNTLYLQMNSLKPEDTAMYYCAADLGHYRPPCGVLYLGMDYWGKGTQVTVSSGGGSQVQLQESGGGSVQAGGSLRLSCVASGYTSCMGWFRQAPGKEREAVATIYTRGRSIYYADSVKGRFTISQDNAKNTLYLQMNSLKPEDIAMYSCAAGGYSWSAGCEFNYWGQGTQVTVSSASHHHHHH")
9
>>> readout_number("DR442(DR236-DR232) (bispecific antibody, Anti-hIL10Ra/hIL2Rg dual VHH with ASH6 handle; also called F7) QVQLQESGGGSVQAGGSLRLSCAASRFTYSSYCMGWFRQAPGKEREGVASIDSDGSTSYTDSVKGRFTISKDNAKNTLYLQMNSLKPEDTAMYYCALDLMSTVVPGFCGFLLSAGMDYWGKGTQVTVSSGGGSQVQLQESGGGSVQAGGSLRLSCVASGYTSCMGWFRQAPGKEREAVATIYTRGRSIYYADSVKGRFTISQDNAKNTLYLQMNSLKPEDIAMYSCAAGGYSWSAGCEFNYWGQGTQVTVSSASHHHHHH")
7
